Provenance of the data: patent US9695155B2

Known plant injury at 125 g/ha of a selection of molecules
Test system: oilseed rape
methodNotes: Test C postemergence
Type: in vivo, Brassica napus
cond: Brassica napus, post-emergence; 125 g ai/ha, postemergence; visual rating, scale 0 to 100 (0 no effect, 100 complete control); read-out: Plant response rating, Oilseed Rape
Provide the reading as a plain figure in %.

FC(F)c1cn(-c2ccccc2Oc2ncc(Cl)cn2)nn1
95

Challenge: Any idea what its plant injury at 125 g/ha is? The molecule is `N#Cc1cccc(Oc2ncc(Cl)cn2)c1-n1cc(C(F)F)cn1`
Response given: 80

Challenge: Proceed to `Fc1cccc(Oc2ncc(Cl)cn2)c1-n1cc(C(F)F)nn1`
Response given: 98

Challenge: Proceed to `N#Cc1cccc(Oc2ncc(Cl)cn2)c1-n1cc(OCC(F)(F)F)cn1`
Response given: 90
